Reference source for all entries: paper PMC12040169

Entries and their viability at 28.5 h, 10 µM values follow.
# Test: in vitro
# Experimental parameters: human, hela cells, % viability, bulk resorufin, single well
// note: answer is a bare numeric in %

[[record]]
molecule = "Oc1ccc(CN2CCN(c3cccc(Cl)c3)CC2)cc1"
quantity_name = "viability at 28.5 h, 10 µM"
reported = 109

[[record]]
molecule = "O=C(COc1ccc(C=C2C(=O)NC(=O)NC2=O)cc1)NCC1CCCO1 (stereo not drawn)"
quantity_name = "viability at 28.5 h, 10 µM"
reported = 91.9

[[record]]
molecule = "Cc1ccc(Cn2nc(C(=O)NCc3ccncc3)c3ccccc32)cc1"
quantity_name = "viability at 28.5 h, 10 µM"
reported = 82.7

[[record]]
molecule = "Cc1ccc(Cl)cc1N1CCNCC1"
quantity_name = "viability at 28.5 h, 10 µM"
reported = 94.6

[[record]]
molecule = "Cc1ccc(Cl)cc1N1C(=O)NC(=O)C(CCc2ccccn2)(CCc2ccccn2)C1=O"
quantity_name = "viability at 28.5 h, 10 µM"
reported = 98.6

[[record]]
molecule = "O=C(O)c1nn(Cc2ccc(Cl)c(Cl)c2)c2ccccc12"
quantity_name = "viability at 28.5 h, 10 µM"
reported = 91.2

[[record]]
molecule = "O=C1NC(=O)C(=Cc2cccc(OCCOc3ccc([N+](=O)[O-])cc3)c2)C(=O)N1"
quantity_name = "viability at 28.5 h, 10 µM"
reported = 95.7

[[record]]
molecule = "c1ccc2c(-c3ccc4c(c3)COC3(CCNCC3)O4)cccc2c1"
quantity_name = "viability at 28.5 h, 10 µM"
reported = 92.5


Here is another molecule to look at.
Prompt: # input molecule: CSc1cc(C)c2c(c1)COC1(CCN(C(=O)c3ccco3)CC1)O2 ; wanted: its viability at 28.5 h, 10 µM
Response: 92.6

* * *

# Test: in vitro
# Experimental parameters: human, hela cells, % viability
Quantity name: viability at 28.5 h, 10 µM (%)
Numbers only; they are read as %.

Below, 4 compounds whose answers are already recorded.
[[record]]
compound = "CCN(CC)CCn1c(=N)n(CC(=O)OC)c2ccccc21 [CBK262517B]"
reported = 87.3

[[record]]
compound = "CCOc1ccc(C(=O)Nc2nc(-c3ccc(F)cc3)cs2)cc1"
reported = 91

[[record]]
compound = "O=C(Cc1ccccc1)N1C[C@@H]2CCCCN(CC3CC3)[C@@H]2C1"
reported = 111

[[record]]
compound = "CCOc1ccsc1C(=O)Nc1cc2ccccc2c(N2CCNCC2)n1 [CBK036341T]"
reported = 99.3


Prompt: # viability at 28.5 h, 10 µM lookup, item CC(CNc1cc(=O)n2ccccc2n1)CN1CCCC1 (centres unmarked)
Response: 99.1

* * *

# Test: in vitro
# Experimental parameters: human, hela cells, % viability
In this section we review reported viability at 28.5 h, 10 µM values for a set of molecules.
Could you give me the number in %? Just the number is fine.

Observe how each entry below is paired with its result.
[[record]]
molecule = "Cc1cccc(C(=O)N2CCC(N(C)Cc3ccc(-c4ccc(S(C)(=O)=O)cc4)nc3)CC2)n1 [CBK165937T]"
reported = 81.5

[[record]]
molecule = "Nc1ncc(-c2ccoc2)nc1Nc1ccc2[nH]ccc2c1"
reported = 80.5

[[record]]
molecule = "CCCNc1nc(-c2ccc(F)c(F)c2)cn2ccnc12"
reported = 94.8

[[record]]
molecule = "CN(C)C(=O)CN1N=C(C(C)(C)C)Cn2c(cc3ccccc32)C1=O"
reported = 81.8

[[record]]
molecule = "Cc1ccc(S(=O)(=O)N2CCCC(C(=O)O)C2)cc1 (stereo not drawn)"
reported = 88.6

[[record]]
molecule = "COCCCN1C(=O)C(O)=C(C(=O)c2ccc(C)o2)C1c1ccc(Br)cc1 (stereo not drawn)"
reported = 90.9

[[record]]
molecule = "Cc1ccc(=O)n(CC(=O)N2CCC[C@@H]3NC(=O)c4ccccc4OCCCCC[C@@H]32)n1"
reported = 94

[[record]]
molecule = "Cn1c(COc2ccccc2)nnc1SCC(=O)c1ccc(-c2ccccc2)cc1"
reported = 87.9


Continue with the next molecule.
Prompt: What does the data say about its viability at 28.5 h, 10 µM? Entry: CS(=O)(=O)NC1CCCN(Cc2nc(N)c3ccccc3n2)C1 (stereo not drawn)
Response: 93.8
